- assay.target: DCAF1 WD40 domain (residues 1077-1390) (Homo sapiens, UniProt Q9Y4B6)
- Construct: DCAF1 WD40 domain (residues 1077-1390)
- Sequence (Q9Y4B6 1077-1390): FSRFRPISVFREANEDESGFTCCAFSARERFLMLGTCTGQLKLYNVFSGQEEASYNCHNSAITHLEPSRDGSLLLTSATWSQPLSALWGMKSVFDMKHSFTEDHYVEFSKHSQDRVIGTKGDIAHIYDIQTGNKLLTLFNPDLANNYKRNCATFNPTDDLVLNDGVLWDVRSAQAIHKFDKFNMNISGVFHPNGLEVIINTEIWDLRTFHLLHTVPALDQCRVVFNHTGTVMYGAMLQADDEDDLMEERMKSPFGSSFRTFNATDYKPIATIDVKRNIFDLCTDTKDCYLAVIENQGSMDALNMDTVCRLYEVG
- experimental.protocol: DCAF1 binding assay by SPR (Biacore 8K+), DCAF1-3 KD
- condition.set: 25 °C, read-out: DCAF1-3 SPR (KD)
pKd: −log10 of the molar value.
Readings of pKd for the listed molecules

Please report the recorded pKd for "NC(=O)CCc1cc(N2CCC[C@@H]3[C@H]2CCN3c2cc(N3CCCCC3)ccn2)ccc1F" .
4.00 to 5.00

What would you report for "Nc1ccc(F)cc1N1CCC[C@@H](Nc2cc(N3CCOCC3)ccn2)C1" ?
> 5.00

What would you report for "CN1CCN(CC2CCN(c3ccnc(N4CC[C@@H]5[C@H]4CCCN5c4cccc(F)c4)c3)CC2)CC1" ?
> 5.00

What would you report for "Oc1ccc(N2CCC[C@H]3[C@@H]2CCN3c2cc(N3CC4CC(C4)C3)ccn2)cc1" ?
> 5.00
